# assaySystem: T1, Spirochaeta thermophila YeeE (Spirochaeta thermophila, UniProt G0GAP6 1-328)
# T1 construct: YeeE of Spirochaeta thermophila, residues 1-328, UniProt G0GAP6; Membrane protein, kept in 0.1% DDM; The His tag was removed with TEV(S219V) protease; also called StYeeE; TsuA; source: E. coli C41(DE3), purified from the membrane fraction in DDM (Ni-NTA, TEV cleavage, Superdex 200)
# T1 sequence (looked up): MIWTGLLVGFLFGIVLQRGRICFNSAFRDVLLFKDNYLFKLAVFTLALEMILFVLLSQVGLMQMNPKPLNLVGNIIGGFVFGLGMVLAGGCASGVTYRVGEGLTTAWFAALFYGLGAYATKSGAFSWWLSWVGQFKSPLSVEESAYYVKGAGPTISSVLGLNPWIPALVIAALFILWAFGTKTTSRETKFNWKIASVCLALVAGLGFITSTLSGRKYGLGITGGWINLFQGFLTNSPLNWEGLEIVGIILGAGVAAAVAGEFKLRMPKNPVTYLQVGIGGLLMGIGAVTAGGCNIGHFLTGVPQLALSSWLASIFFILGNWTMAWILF
# experimentSummary: BLI; StYeeD-His6 (4.82 μM) loaded on a Ni-NTA biosensor, 11.05 μM StYeeE in solution; Octet N1, room temperature; 20 mM Tris-HCl pH 8.0, 300 mM NaCl, 0.1% DDM, 1 mM β-ME; 120 s association, 120 s dissociation; local fitting; 3 measurements. WT was also run with 300 mM Na2SO4 (binding similar) or 300 mM Na2S2O3 (binding significantly decreased)
# assayContext: both partners purified
pKd: −log10 of the molar value.
Kind request: treat 5 as inclusive, so pKd at 5 or higher is 1 (yes), anything lower is 0 (no).

# binder, classLabel
records = [
    ("StYeeD(L38A), His6-tagged (natural protein, Spirochaeta thermophila, UniProt G0GAP7 1-80, looked up, YeeD of Spirochaeta thermophila, residues 1-80, UniProt G0GAP7, with L38A; source: E. coli C41(DE3), purified (Ni-NTA, Superdex 200)) MANYQVSKEIDVRGEVCPIPDVEAKRAVQSANDGEIIAVRIDYPLSKERIPETVKKLGSEVLEIEEAAPGEWNIYIKVKK", "1 (yes)"),
    ("StYeeD(K8A), His6-tagged (natural protein, Spirochaeta thermophila, UniProt G0GAP7 1-80, looked up, YeeD of Spirochaeta thermophila, residues 1-80, UniProt G0GAP7, with K8A; source: E. coli C41(DE3), purified (Ni-NTA, Superdex 200)) MANYQVSAEIDVRGEVCPIPDVEAKRAVQSANDGEIILVRIDYPLSKERIPETVKKLGSEVLEIEEAAPGEWNIYIKVKK", "1 (yes)"),
    ("StYeeD(E9A), His6-tagged (natural protein, Spirochaeta thermophila, UniProt G0GAP7 1-80, looked up, YeeD of Spirochaeta thermophila, residues 1-80, UniProt G0GAP7, with E9A; source: E. coli C41(DE3), purified (Ni-NTA, Superdex 200)) MANYQVSKAIDVRGEVCPIPDVEAKRAVQSANDGEIILVRIDYPLSKERIPETVKKLGSEVLEIEEAAPGEWNIYIKVKK", "1 (yes)"),
    ("StYeeD(Y43A), His6-tagged (natural protein, Spirochaeta thermophila, UniProt G0GAP7 1-80, looked up, YeeD of Spirochaeta thermophila, residues 1-80, UniProt G0GAP7, with Y43A; source: E. coli C41(DE3), purified (Ni-NTA, Superdex 200)) MANYQVSKEIDVRGEVCPIPDVEAKRAVQSANDGEIILVRIDAPLSKERIPETVKKLGSEVLEIEEAAPGEWNIYIKVKK", "0 (no)"),
    ("StYeeD(E63A), His6-tagged (natural protein, Spirochaeta thermophila, UniProt G0GAP7 1-80, looked up, YeeD of Spirochaeta thermophila, residues 1-80, UniProt G0GAP7, with E63A; source: E. coli C41(DE3), purified (Ni-NTA, Superdex 200)) MANYQVSKEIDVRGEVCPIPDVEAKRAVQSANDGEIILVRIDYPLSKERIPETVKKLGSEVLAIEEAAPGEWNIYIKVKK", "1 (yes)"),
    ("StYeeD(V16A), His6-tagged (natural protein, Spirochaeta thermophila, UniProt G0GAP7 1-80, looked up, YeeD of Spirochaeta thermophila, residues 1-80, UniProt G0GAP7, with V16A; source: E. coli C41(DE3), purified (Ni-NTA, Superdex 200)) MANYQVSKEIDVRGEACPIPDVEAKRAVQSANDGEIILVRIDYPLSKERIPETVKKLGSEVLEIEEAAPGEWNIYIKVKK", "1 (yes)"),
    ("StYeeD(R49A), His6-tagged (natural protein, Spirochaeta thermophila, UniProt G0GAP7 1-80, looked up, YeeD of Spirochaeta thermophila, residues 1-80, UniProt G0GAP7, with R49A; source: E. coli C41(DE3), purified (Ni-NTA, Superdex 200)) MANYQVSKEIDVRGEVCPIPDVEAKRAVQSANDGEIILVRIDYPLSKEAIPETVKKLGSEVLEIEEAAPGEWNIYIKVKK", "0 (no)"),
    ("StYeeD(V39A), His6-tagged (natural protein, Spirochaeta thermophila, UniProt G0GAP7 1-80, looked up, YeeD of Spirochaeta thermophila, residues 1-80, UniProt G0GAP7, with V39A; source: E. coli C41(DE3), purified (Ni-NTA, Superdex 200)) MANYQVSKEIDVRGEVCPIPDVEAKRAVQSANDGEIILARIDYPLSKERIPETVKKLGSEVLEIEEAAPGEWNIYIKVKK", "1 (yes)"),
    ("StYeeD(E48A), His6-tagged (natural protein, Spirochaeta thermophila, UniProt G0GAP7 1-80, looked up, YeeD of Spirochaeta thermophila, residues 1-80, UniProt G0GAP7, with E48A; source: E. coli C41(DE3), purified (Ni-NTA, Superdex 200)) MANYQVSKEIDVRGEVCPIPDVEAKRAVQSANDGEIILVRIDYPLSKARIPETVKKLGSEVLEIEEAAPGEWNIYIKVKK", "1 (yes)"),
    ("Spirochaeta thermophila YeeD (WT), His6-tagged (natural protein, UniProt G0GAP7 1-80, looked up, YeeD of Spirochaeta thermophila, residues 1-80, UniProt G0GAP7; 11.3 kDa with the tag; As purified, C17 is partly modified (mass spectrometry: -SH, -S-O2-/-S-S-, -S-SO3-); also called StYeeD; StYeeD(WT); source: E. coli C41(DE3), purified (Ni-NTA, Superdex 200)) MANYQVSKEIDVRGEVCPIPDVEAKRAVQSANDGEIILVRIDYPLSKERIPETVKKLGSEVLEIEEAAPGEWNIYIKVKK", "1 (yes)"),
    ("StYeeD(L45A), His6-tagged (natural protein, Spirochaeta thermophila, UniProt G0GAP7 1-80, looked up, YeeD of Spirochaeta thermophila, residues 1-80, UniProt G0GAP7, with L45A; source: E. coli C41(DE3), purified (Ni-NTA, Superdex 200)) MANYQVSKEIDVRGEVCPIPDVEAKRAVQSANDGEIILVRIDYPASKERIPETVKKLGSEVLEIEEAAPGEWNIYIKVKK", "1 (yes)"),
]
